Data provenance: patent US20010041365A1

- method.summary: Plasma FAEE levels in acute (binge) and chronic drinkers at peak ethanol levels and 24 hours after peak (Example 7)
- Assay type: in vivo, human
- particulars: human, plasma, oral, 24 hours after peak ethanol levels; read-out: concentration of ethyl oleate in the majority of binge drinkers (9 out of 13)
test.readout: concentration at 24 h

Query string: Item under review: CCCCCCCC/C=C\CCCCCCCC(=O)OCC [ethyl oleate] . Reported concentration at 24 h?
Result string: < 1 nM

---

- method.summary: Plasma FAEE levels in acute (binge) and chronic drinkers at peak ethanol levels and 24 hours after peak (Example 7)
- Assay type: in vivo, human
- particulars: human, plasma, oral, 24 hours after peak; read-out: Concentration of Ethyl Oleate in Binge Drinkers (range)
test.readout: concentration at 24 h

Query string: Look up concentration at 24 h for this molecule: CCCCCCCC/C=C\CCCCCCCC(=O)OCC [ethyl oleate]
Result string: 0 to 80 nM

---

- method.summary: Plasma FAEE levels in acute (binge) and chronic drinkers at peak ethanol levels and 24 hours after peak (Example 7)
- Assay type: in vivo, human
- particulars: human, plasma, oral, 24 hours after peak; read-out: Concentration of Ethyl Oleate in Chronic Drinkers (range)
- Description: Thus, as an example, gas chromatography either alone or in combination with mass spectrometry and/or an initial step of solid phase extraction can be used to determine total and/or individual fatty acid ethyl ester concentrations. […] In order to determine and quantitate FAEE content, an internal standard of 1 nmol of ethyl heptadecanoate (ethyl 17:0) is added to each sample. […] Total FAEE mass is determined by the addition of masses of individual FAEEs (E16:0-E22:6). […]
test.readout: concentration at 24 h

Query string: Request the reported concentration at 24 h associated with CCCCCCCC/C=C\CCCCCCCC(=O)OCC [ethyl oleate]
Result string: 0.12 to 28.1 µM
